Quick reference: cytotoxicity at 10 µM of the listed items.
Assay: Toxicity liver stage against HepG2, at 10uM
Format: cell-based
Design: test concentration 10 uM, cell line HepG2-A16-CD81EGFP
Conditions: human, HepG2-A16-CD81EGFP cells; read-out: INHIBITION
Report the figure in % without appending any unit label.

Examples from the recorded data:
Provide cytotoxicity at 10 µM value for the following compound: CC(=O)Nc1ccc(CNc2cccc(CS(C)(=O)=O)c2)cc1
-6.91

Provide cytotoxicity at 10 µM value for the following compound: Cc1ccc(-c2cnc(CCC(=O)NCCN3CCOCC3)o2)cc1C
7.36

Provide cytotoxicity at 10 µM value for the following compound: CCCSCC(=O)N1CCCC2(CCC(=O)N(CCc3c[nH]cn3)C2)C1 (stereo unspecified)
-0.0682

Provide cytotoxicity at 10 µM value for the following compound: Cn1ccnc1CN1CCc2c(COCC3CC3)nn(C)c2C1
8.68

Provide cytotoxicity at 10 µM value for the following compound: NC(=O)C1CCCN(c2ncnc3c2Cc2ccccc2OC3)C1 (stereo unspecified)
-5.64

Provide cytotoxicity at 10 µM value for the following compound: CCS(=O)(=O)N1CCC2(CC1)CN(c1cncnc1)C(=O)CO2
6.91

Provide cytotoxicity at 10 µM value for the following compound: COc1ccccc1CCNC(=O)NC(C)COCC(F)(F)F (stereo unspecified)
8.91

Provide cytotoxicity at 10 µM value for the following compound: Cc1nnc([C@@]23CCO[C@@H]2CCN(S(=O)(=O)c2ccccc2)C3)o1
-99.4

---
Provide cytotoxicity at 10 µM value for the following compound: CC(=O)N1CCN(Cc2ccc(C(F)(F)F)c(F)c2)CC(O)C1 (stereo unspecified)
-2.2

Provide cytotoxicity at 10 µM value for the following compound: CCn1cnc(NC(=O)N2CCC(c3ccc(Cl)cc3)C2)n1 (stereo unspecified)
0.0451

Provide cytotoxicity at 10 µM value for the following compound: CC(C)[C@H]1COC(=O)N1CC(=O)N(C)CCCn1cccn1
-157

----------
Quick reference: cytotoxicity at 10 µM of the listed items.
Assay: Toxicity liver stage against HepG2, at 10uM
Format: cell-based
Parameters: test concentration 10 uM, cell line HepG2-A16-CD81EGFP
Conditions: human, HepG2-A16-CD81EGFP cells; read-out: INHIBITION
Report the figure in % without appending any unit label.

Examples from the recorded data:
Provide cytotoxicity at 10 µM value for the following molecule: COc1ccc(NC(=O)CN2CCS(=O)(=O)CC2)cn1
11.8

Provide cytotoxicity at 10 µM value for the following molecule: Cc1cnc2c(C(=O)N3CCCC(OCc4ccccn4)C3)cnn2c1 (stereo unspecified)
-5.2

---
Provide cytotoxicity at 10 µM value for the following molecule: Cc1csc(C2CCCCN2C(=O)CN(C)C2CC2)n1 (stereo unspecified)
-1.9

Provide cytotoxicity at 10 µM value for the following molecule: CCS(=O)(=O)N1CC(c2nc(-c3ccncc3)no2)C1
-5.86

Provide cytotoxicity at 10 µM value for the following molecule: Cc1cnn(C2CN(CC(=O)NCCCc3ccccc3)C2)c1
0.555

Provide cytotoxicity at 10 µM value for the following molecule: Cc1cc(CN2CC[C@H]3[C@H]2CCN3CC(=O)N(C)C)oc1C
-5.6

Provide cytotoxicity at 10 µM value for the following molecule: Cc1ccc(C(N)=O)c(N2C[C@H]3OC(=O)N(C4CCCC4)[C@H]3C2)n1
5.54

Provide cytotoxicity at 10 µM value for the following molecule: COc1ccc(Oc2ccc(CNC(=O)C(C)n3cncn3)cn2)cc1 (stereo unspecified)
5.42

Provide cytotoxicity at 10 µM value for the following molecule: O=C(CCn1cncn1)N1CCCC(CO)(CCCc2ccccc2)C1 (stereo unspecified)
4.25

Provide cytotoxicity at 10 µM value for the following molecule: COCCN1CC(C(=O)N(C)Cc2csc(C)n2)CC1=O (stereo unspecified)
12.5

----------
Test: Toxicity liver stage against HepG2, at 10uM
Format: cell-based
Design: test concentration 10 uM, cell line HepG2-A16-CD81EGFP
Details: human, HepG2-A16-CD81EGFP cells; read-out: INHIBITION
measured.metric: cytotoxicity at 10 µM (%)
Report the figure in % without appending any unit label.

Examples from the recorded data:
Provide cytotoxicity at 10 µM value for the following compound: Nc1cc(CCCNC(=O)NC2CC2)nn1-c1ccccc1
1.54

Provide cytotoxicity at 10 µM value for the following compound: c1ccc(CN2C[C@@H]3CC[C@H]2CN(Cc2nnc(C4CC4)o2)C3)cc1
-22.4

Provide cytotoxicity at 10 µM value for the following compound: COc1ccccc1OC1CN(c2ccncc2)C1
-2.76

Provide cytotoxicity at 10 µM value for the following compound: CC(OCC1CC1)C(=O)N1CCCN(c2ncccc2C#N)CC1 (stereo unspecified)
-11.6

Provide cytotoxicity at 10 µM value for the following compound: Cc1ccc(OCC2CCCN(c3nc(CO)cs3)C2)cc1 (stereo unspecified)
5.4

# evaluate next
Provide cytotoxicity at 10 µM value for the following compound: CN(Cc1nccn1C)c1ccc(-c2nccn2C)nn1
-6.45

----------
Test: Toxicity liver stage against HepG2, at 10uM
Format: cell-based
Set-up: test concentration 10 uM, cell line HepG2-A16-CD81EGFP
Settings: human, HepG2-A16-CD81EGFP cells; read-out: INHIBITION
Quick reference: cytotoxicity at 10 µM of the listed items.
Report the figure in % without appending any unit label.

Examples from the recorded data:
Provide cytotoxicity at 10 µM value for the following compound: O=C(NC1CC2(CCN(CCO)CC2)c2ccccc21)c1ccsc1 (centres undefined)
-14.2

Provide cytotoxicity at 10 µM value for the following compound: CCC(=O)Nc1nnc(CCCOc2ccccc2)s1
-0.834

Provide cytotoxicity at 10 µM value for the following compound: NS(=O)(=O)CC1CCCN1CCOc1ccccc1F (centres undefined)
3.98

Provide cytotoxicity at 10 µM value for the following compound: Cc1cc(N2CCN(C(=O)C(C)n3ccnc3C(C)C)CC2)cc(C)n1 (centres undefined)
-3.59

Provide cytotoxicity at 10 µM value for the following compound: O=C(Cc1ccc2c(c1)CCO2)N1CCCC1Cn1cccn1 (centres undefined)
-149

Provide cytotoxicity at 10 µM value for the following compound: C=C(C)COc1ccccc1CNCCc1c[nH]cn1
-2.21

Provide cytotoxicity at 10 µM value for the following compound: NC(=O)c1cc(C2CCCN(C(=O)CCc3cscn3)C2)n[nH]1 (centres undefined)
-7.59

Provide cytotoxicity at 10 µM value for the following compound: O=C(NCCc1nncn1C1CC1)C1SCCc2ccccc21 (centres undefined)
2.48

---
Provide cytotoxicity at 10 µM value for the following compound: CC(C)NC(=O)[C@@H]1CN(C)C[C@]12COc1ccc(F)cc1C2=O
2.17

Provide cytotoxicity at 10 µM value for the following compound: OCC1(CCOc2ccccc2)CCCN(c2ccc(Cl)cn2)C1 (centres undefined)
7.52

Provide cytotoxicity at 10 µM value for the following compound: CC(O)CN1CCN(Cc2csc(-c3cnn(C)c3)n2)CC1 (centres undefined)
-4.1

Provide cytotoxicity at 10 µM value for the following compound: Cc1ccc(NC(=O)CN[C@H](C(N)=O)C(C)C)cc1F
11

Provide cytotoxicity at 10 µM value for the following compound: O=C(NCc1ccco1)c1nn(C2CCS(=O)(=O)C2)c2c1CCCC2 (centres undefined)
-11

Provide cytotoxicity at 10 µM value for the following compound: CN(Cc1cc2n(n1)CCN(C(=O)c1cccnc1)C2)Cc1nccs1
1.2

----------
Test: Toxicity liver stage against HepG2, at 10uM
Type: cell-based
Parameters: test concentration 10 uM, cell line HepG2-A16-CD81EGFP
Conditions: human, HepG2-A16-CD81EGFP cells; read-out: INHIBITION
Quick reference: cytotoxicity at 10 µM of the listed items.
Include the unit right after the number.

Provide cytotoxicity at 10 µM value for the following compound: c1csc(-c2noc(C3CN(Cc4ccc5c(c4)CCO5)C3)n2)c1
-8.2%

---
Provide cytotoxicity at 10 µM value for the following compound: Cc1nn(C)c(C)c1CN(C)C(=O)c1cccc(CCC(C)(C)O)c1
3.13%

----------
Quick reference: cytotoxicity at 10 µM of the listed items.
Experiment: Toxicity liver stage against HepG2, at 10uM
Type: cell-based
Set-up: test concentration 10 uM, cell line HepG2-A16-CD81EGFP
Conditions: human, HepG2-A16-CD81EGFP cells; read-out: INHIBITION
Report the figure in % without appending any unit label.

Provide cytotoxicity at 10 µM value for the following compound: c1csc(N2CCN(c3nccn4cnnc34)CC2)n1
-5.81

Provide cytotoxicity at 10 µM value for the following compound: CC(=O)NCCNC(=O)C1(Oc2cccnc2C)CCNCC1
3.24

Provide cytotoxicity at 10 µM value for the following compound: CCOCC(O)CN1CCN(C(=O)Cc2cccc(Cl)c2)CC1 (stereo not drawn)
-7.69

Provide cytotoxicity at 10 µM value for the following compound: Cn1cc(CN2C[C@H](Oc3ncccc3F)[C@H]3OCCC[C@H]32)cn1
2.72

Provide cytotoxicity at 10 µM value for the following compound: CCOC1CC2(CCN(C(C)=O)CC2)c2cc(F)ccc21 (stereo not drawn)
-143

Provide cytotoxicity at 10 µM value for the following compound: O=C(c1ccc2sccc2c1)N1CCC(C(=O)O)(n2ccnc2)CC1
2.69

Provide cytotoxicity at 10 µM value for the following compound: Cc1nc(C)n(C2CCCN(C(=O)Cc3ccc4c(c3)CCC4)C2)n1 (stereo not drawn)
-10.3

Provide cytotoxicity at 10 µM value for the following compound: Cc1ccccc1OCCCNC(=O)C1(C)CC(=O)N2C=CC=CC2=N1 (stereo not drawn)
-4.96

Provide cytotoxicity at 10 µM value for the following compound: c1cncc(COCc2nnc3n2CCN(Cc2ccoc2)C3)c1
-11.2

Provide cytotoxicity at 10 µM value for the following compound: Cc1nc2c(c(=O)n1C)CN(C(=O)C1CCN(C(=O)C3CCC3)CC1)C2
-3.54

Provide cytotoxicity at 10 µM value for the following compound: CN(CC(=O)c1ccc2[nH]c(=O)[nH]c2c1)Cc1ccc2c(c1)OCO2
5.34
